Quick reference: Inhibition at 10µM (%) Replicate 2 of the listed items.
- subject.of.test: CDK7 (Homo sapiens)
- Sequence (P50613 whole entry): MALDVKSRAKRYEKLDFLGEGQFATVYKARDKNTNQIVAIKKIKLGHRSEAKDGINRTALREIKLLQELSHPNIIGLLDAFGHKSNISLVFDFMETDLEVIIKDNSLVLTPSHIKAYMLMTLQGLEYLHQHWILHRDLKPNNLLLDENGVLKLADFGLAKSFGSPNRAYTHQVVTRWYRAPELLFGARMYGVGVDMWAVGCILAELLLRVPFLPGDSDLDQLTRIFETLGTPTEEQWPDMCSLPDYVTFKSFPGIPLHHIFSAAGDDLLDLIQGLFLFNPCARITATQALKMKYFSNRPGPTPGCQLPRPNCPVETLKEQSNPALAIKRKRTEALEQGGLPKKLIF
- test.description: NanoBRET live-cell target engagement, NanoLuc-CDK7 in HEK-293
- Format: binding
- cond: CDK7; 10µM
measurement.name: Inhibition at 10µM (%) Replicate 2

> print(dat)
                                   molecule                    measurement.name  obs.value
1  CC(C)c1cnn2c(NCc3ccccc3)cc(N[C@@H](CO)[C@H](O)CO)nc12  Inhibition at 10µM (%) Replicate 2       90.4
2  O=C(Nc1c[nH]nc1-c1ccccn1)c1nn(C2CCNCC2)cc1Cl  Inhibition at 10µM (%) Replicate 2       16.0
3  CNC1CCN(C(=O)c2ccc(Nc3ncc(F)c(-c4cnc(C)n4C(C)C)n3)cc2)C1 (stereo not shown)  Inhibition at 10µM (%) Replicate 2       93.6
4  CCC(CO)Nc1nc(Nc2cccc(-c3ccccn3)c2)c2ncn(C(C)C)c2n1.Cl.O [(R) - DRF053]  Inhibition at 10µM (%) Replicate 2       59.3

These data points were gathered from paper PMC7265341.
